Target: cynomolgus monkey Mdr1 (Macaca fascicularis, UniProt Q8HZQ6)
Sequence (Q8HZQ6 1-1283): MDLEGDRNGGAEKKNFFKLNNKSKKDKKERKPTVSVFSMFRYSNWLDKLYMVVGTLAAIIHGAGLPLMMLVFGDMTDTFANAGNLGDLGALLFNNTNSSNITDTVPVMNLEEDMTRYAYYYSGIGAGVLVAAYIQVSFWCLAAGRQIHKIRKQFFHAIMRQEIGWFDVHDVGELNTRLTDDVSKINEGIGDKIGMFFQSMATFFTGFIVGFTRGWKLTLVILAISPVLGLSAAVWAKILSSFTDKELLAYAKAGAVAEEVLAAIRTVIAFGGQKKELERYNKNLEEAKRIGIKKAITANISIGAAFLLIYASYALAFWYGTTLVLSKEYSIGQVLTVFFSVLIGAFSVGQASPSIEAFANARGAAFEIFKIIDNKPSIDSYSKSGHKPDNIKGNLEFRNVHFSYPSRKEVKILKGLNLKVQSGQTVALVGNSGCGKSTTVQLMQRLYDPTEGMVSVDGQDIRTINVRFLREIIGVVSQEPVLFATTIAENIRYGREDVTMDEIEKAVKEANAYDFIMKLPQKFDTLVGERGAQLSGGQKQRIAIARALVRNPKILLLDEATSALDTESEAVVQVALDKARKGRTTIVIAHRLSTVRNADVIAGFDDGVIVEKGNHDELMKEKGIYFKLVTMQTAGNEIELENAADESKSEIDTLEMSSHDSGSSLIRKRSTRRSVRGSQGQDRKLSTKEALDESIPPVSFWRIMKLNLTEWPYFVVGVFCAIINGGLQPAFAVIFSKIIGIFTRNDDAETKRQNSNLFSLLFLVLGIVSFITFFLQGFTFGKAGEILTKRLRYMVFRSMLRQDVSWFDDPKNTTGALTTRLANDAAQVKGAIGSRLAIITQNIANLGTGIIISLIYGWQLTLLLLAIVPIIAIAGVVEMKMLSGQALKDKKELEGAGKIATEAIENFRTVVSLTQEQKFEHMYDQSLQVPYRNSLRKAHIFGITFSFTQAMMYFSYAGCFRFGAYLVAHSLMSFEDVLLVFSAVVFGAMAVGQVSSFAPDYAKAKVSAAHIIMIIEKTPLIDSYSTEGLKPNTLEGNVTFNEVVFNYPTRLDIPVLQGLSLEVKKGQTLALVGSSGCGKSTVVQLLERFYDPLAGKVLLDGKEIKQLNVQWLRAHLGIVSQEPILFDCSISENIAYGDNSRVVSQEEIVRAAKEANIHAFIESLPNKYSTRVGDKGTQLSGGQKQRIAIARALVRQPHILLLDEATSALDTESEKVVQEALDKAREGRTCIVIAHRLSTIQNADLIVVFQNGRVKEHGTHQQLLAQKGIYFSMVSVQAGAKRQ
Test: Bidirectional transport assay, efflux ratio in Abcb1KO-MDCKII cyMDR1 cells
Conditions: cynomolgus monkey, pH 7.4
# key: entry, value: efflux ratio at 120 min, 1 µM
The reply should be a number, written without any unit.

Reference set, count: 5
CC/C(=C(\c1ccccc1)c1ccc(OCCN(C)C)cc1)c1ccccc1 : 1.81
NC(N)=Nc1nc(CSCCC(N)=NS(N)(=O)=O)cs1 : 0.94
CC(C)NCC(O)COc1cccc2ccccc12 (stereo not shown) : 0.66
O=c1n(CCCN2CCN(c3cccc(Cl)c3)CC2)nc2ccccn12 : 1.5
COc1ccc(CCN2CCC(Nc3nc4ccccc4n3Cc3ccc(F)cc3)CC2)cc1 : 10.6

Input: Please report the measured efflux ratio at 120 min, 1 µM for CN(C)CCC=C1c2ccccc2COc2ccccc21 [Doxepin]
Output: 0.71

Input: Please report the measured efflux ratio at 120 min, 1 µM for CCNc1nc(Cl)nc(NC(C)C)n1
Output: 0.54

Input: Please report the measured efflux ratio at 120 min, 1 µM for Cc1cc(=O)n(-c2ccccc2)n1C [Antipyrine]
Output: 0.67

Input: Please report the measured efflux ratio at 120 min, 1 µM for N=C(N)N/N=C/c1c(Cl)cccc1Cl
Output: 0.84

Input: Please report the measured efflux ratio at 120 min, 1 µM for OC[C@@H](O)[C@@H](O)[C@H](O)[C@H](O)CO
Output: 0.76

----------
# key: entry, value: efflux ratio at 120 min, 1 µM
Target: UniProtKB Q8HZQ6
Test: Bidirectional transport assay, efflux ratio in Abcb1KO-MDCKII cyMDR1 cells
Details: cynomolgus monkey, pH 7.4
Experimental: Eluent A consisted of 0.1% formic acid in water, eluent B consisted of 0.1% formic acid in acetonitrile. Then, 10 µL samples were injected into the HPLC-MS/MS system. Mass spectrometric detection was performed in SRM mode, and ion transitions for each analyte were optimized during method development. Samples were analyzed in pools, with each pool containing three to four analytes.

Input: Please report the measured efflux ratio at 120 min, 1 µM for CN(C)CCCN1c2ccccc2CCc2ccccc21
Output: 0.82

Input: Please report the measured efflux ratio at 120 min, 1 µM for CC(C)N(CCC(C(N)=O)(c1ccccc1)c1ccccn1)C(C)C (stereo not shown) [Disopyramide]
Output: 17.2

Input: Please report the measured efflux ratio at 120 min, 1 µM for Cc1ccc(-c2ncc(Cl)cc2-c2ccc(S(C)(=O)=O)cc2)cn1
Output: 1.24

Input: Please report the measured efflux ratio at 120 min, 1 µM for O=C1CC[C@@]2(O)[C@H]3Cc4ccc(O)c5c4[C@@]2(CCN3CC2CC2)[C@H]1O5 [Naltrexone]
Output: 1.17

Input: Please report the measured efflux ratio at 120 min, 1 µM for COc1cc2ncnc(Nc3ccc(F)c(Cl)c3)c2cc1OCCCN1CCOCC1
Output: 4.65

Input: Please report the measured efflux ratio at 120 min, 1 µM for CC[C@H]1OC(=O)[C@H](C)[C@@H](O[C@H]2C[C@@](C)(OC)[C@@H](O)[C@H](C)O2)[C@H](C)[C@@H](O[C@@H]2O[C@H](C)C[C@H](N(C)C)[C@H]2O)[C@](C)(OC)C[C@@H](C)C(=O)[C@H](C)[C@@H](O)[C@]1(C)O
Output: 17.2

Input: Please report the measured efflux ratio at 120 min, 1 µM for O=C(CCCN1CCC(O)(c2ccc(Cl)cc2)CC1)c1ccc(F)cc1
Output: 0.8
